# tested.on: PDGF-receptor beta enzyme comprising the tyrosine kinase domain (Homo sapiens)
# Construct: from amino acid 545 to 1106 of GenBank Access NO: AAA36427
# assay.details: Inhibition of PDGF-receptor kinase activity (cell-free, PLC1 peptide, 33P Flashplate)
# Format: biochemical
# condition.summary: IC50 (μM), PDGF-R kinase activity
metric.name: IC50 (µM)

molecule: CCOP(=O)(OCC)n1nc(Nc2cccc(F)c2)c2c1-c1cc(OC)c(OC)cc1C2 [Compound 446]
readout.value: 0.266

====

# tested.on: PDGF-receptor beta enzyme comprising the tyrosine kinase domain (Homo sapiens, UniProt P09619)
# Construct: from amino acid 545 to 1106 of GenBank Access NO: AAA36427
# Sequence (P09619 545-1106): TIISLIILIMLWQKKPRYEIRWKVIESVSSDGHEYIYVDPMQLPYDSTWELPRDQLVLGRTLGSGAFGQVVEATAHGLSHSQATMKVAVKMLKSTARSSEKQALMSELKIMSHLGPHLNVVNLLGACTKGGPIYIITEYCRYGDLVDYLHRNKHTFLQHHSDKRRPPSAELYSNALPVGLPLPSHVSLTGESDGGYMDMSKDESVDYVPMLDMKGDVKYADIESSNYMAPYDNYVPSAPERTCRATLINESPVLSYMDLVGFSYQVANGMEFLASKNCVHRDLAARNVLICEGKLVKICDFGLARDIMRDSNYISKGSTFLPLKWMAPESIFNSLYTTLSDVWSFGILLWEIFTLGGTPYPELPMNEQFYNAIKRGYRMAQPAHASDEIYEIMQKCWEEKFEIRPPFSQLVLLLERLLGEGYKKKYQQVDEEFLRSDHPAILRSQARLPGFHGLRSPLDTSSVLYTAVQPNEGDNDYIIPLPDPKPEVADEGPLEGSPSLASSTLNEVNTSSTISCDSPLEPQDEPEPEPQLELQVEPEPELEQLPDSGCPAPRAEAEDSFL
# assay.details: Inhibition of PDGF-receptor kinase activity (cell-free, PLC1 peptide, 33P Flashplate)
# Format: biochemical
# condition.summary: PDGF-R kinase activity; compound at 10 uM; read-out: Percent Inhibition @ 10 uM

molecule: COc1cc2c(cc1OC)-c1n[nH]c(NCc3cccc(C)c3)c1C2
inhibition at 10 µM [%]: 61
--
molecule: COC(=O)CCC(=O)n1nc(Nc2cccc(F)c2)c2c1-c1cc(OC)c(OC)cc1C2
inhibition at 10 µM [%]: 85.5
--
molecule: COc1ccc(Cl)cc1Nc1[nH]nc2c1Cc1ccccc1-2
inhibition at 10 µM [%]: 56.5
--
molecule: COc1cc(Nc2[nH]nc3c2Cc2cc(OC)c(OC)cc2-3)cc(OC)c1
inhibition at 10 µM [%]: 83
--
molecule: CC(C)Oc1cc2c(cc1OC(C)C)-c1n[nH]c(Nc3cccc(F)c3)c1C2
inhibition at 10 µM [%]: 89
--
molecule: COCCCOc1ccc2c(c1)Cc1c-2n[nH]c1Nc1cccc(Br)c1
inhibition at 10 µM [%]: 83.5
--
molecule: COc1cc2c(cc1OC)-c1n[nH]c(Nc3cccc(C(=O)O)c3)c1C2
inhibition at 10 µM [%]: 82
--
molecule: OC1c2ccccc2-c2n[nH]c(Nc3ccccc3)c21 (stereo not drawn)
inhibition at 10 µM [%]: 38
--
molecule: CCOc1cccc(Nc2[nH]nc3c2Cc2cc(OCC)c(OCC)cc2-3)c1
inhibition at 10 µM [%]: 96.5
--
molecule: COc1cc2c(cc1OCC(O)CO)Cc1c-2n[nH]c1Nc1ccc(F)c(Cl)c1 (stereo not drawn)
inhibition at 10 µM [%]: 71
--
molecule: COc1ccc(OC)c(Nc2[nH]nc3c2Cc2cc(OC)c(OC)cc2-3)c1
inhibition at 10 µM [%]: 39
--
molecule: Cc1ccccc1CNc1[nH]nc2c1Cc1cc(F)ccc1-2
inhibition at 10 µM [%]: 94.5
--
molecule: COCn1nc2c(c1Nc1cccc(F)c1)Cc1cc(OC)c(OC)cc1-2
inhibition at 10 µM [%]: 65.5
--
molecule: Cc1ccc2c(c1)-c1n[nH]c(NCc3cc(Cl)cc(Cl)c3)c1C2
inhibition at 10 µM [%]: 62.5
--
molecule: COc1cc2c(cc1OC)-c1n[nH]c(NCc3ccc(C)cc3)c1C2
inhibition at 10 µM [%]: 70
--
molecule: COc1cccc(Nc2[nH]nc3c2Cc2cc(OCCCO)c(OC)cc2-3)c1
inhibition at 10 µM [%]: 110
--
molecule: CC1c2ccccc2-c2n[nH]c(Nc3ccc(OC(F)(F)F)cc3)c21 (stereo not drawn)
inhibition at 10 µM [%]: 60
--
molecule: COc1cc2c(cc1OC)-c1nn(COC(=O)C(C)(C)C)c(Nc3cccc(F)c3)c1C2
inhibition at 10 µM [%]: 83

====

# tested.on: PDGF-receptor beta enzyme comprising the tyrosine kinase domain (Homo sapiens, UniProt P09619)
# Construct: from amino acid 545 to 1106 of GenBank Access NO: AAA36427
# assay.details: Inhibition of PDGF-receptor kinase activity (cell-free, PLC1 peptide, 33P Flashplate)
# Assay type: biochemical
# condition.summary: PDGF-R kinase activity; read-out: IC50
List of IC50 values.

compound: Brc1cccc(Nc2[nH]nc3c2Cc2cc4c(cc2-3)OCO4)c1
IC50 / nM: 63

compound: OC1c2ccccc2-c2n[nH]c(Nc3ccccc3)c21 (stereo not drawn)
IC50 / nM: 11400

compound: CCOc1cccc(Nc2[nH]nc3c2Cc2cc(OCCCO)c(OCCCO)cc2-3)c1
IC50 / nM: 22

compound: COc1cc2c(cc1OC)-c1c(c(Nc3cccc(F)c3)nn1C(=O)c1ccccc1)C2
IC50 / nM: 1150

compound: CN1CCN(c2ccc3c(c2)Cc2c-3n[nH]c2Nc2cccc(Cl)c2)CC1
IC50 / nM: 16.3

compound: COc1cccc(Nc2[nH]nc3c2Cc2cc(Cl)ccc2-3)c1
IC50 / nM: 40

compound: Fc1cccc(Nc2[nH]nc3c2Cc2cc(F)ccc2-3)c1
IC50 / nM: 211

compound: COc1cc2c(cc1OC)-c1n[nH]c(Nc3cc(Cl)ccc3Cl)c1C2
IC50 / nM: 6990

compound: CCC1c2cc(OC)c(OC)cc2-c2n[nH]c(Nc3cccc(Br)c3)c21 (stereo not drawn) [Compound 420]
IC50 / nM: 52.4

====

# assay.details: Rat pharmacokinetics study of pro-drugs, conversion to parent monitored by HPLC/MS/MS
# Assay type: in vivo
# condition.summary: po, rat plasma, 10 mg/kg orally, read-out: Fast PK (0.5 h) conc. Prodrug
Values of concentration at 0.5 h strictly less than 80 nM map to Y, and values of at least 80 nM map to N.

smiles.str: COc1cc2c(cc1OC)-c1c(c(Nc3cccc(F)c3)nn1C(=O)OCCOCCOCCO)C2
label.class: Y
--
smiles.str: COCC(=O)n1nc(Nc2cccc(F)c2)c2c1-c1cc(OC)c(OC)cc1C2
label.class: N
--
smiles.str: COc1cc2c(cc1OC)-c1c(c(Nc3cccc(F)c3)nn1C(=O)Oc1ccccc1)C2
label.class: Y
--
smiles.str: CNC(=O)n1nc(Nc2cccc(F)c2)c2c1-c1cc(OC)c(OC)cc1C2
label.class: N

====

# tested.on: PDGF-receptor beta enzyme comprising the tyrosine kinase domain (Homo sapiens)
# Construct: from amino acid 545 to 1106 of GenBank Access NO: AAA36427
# assay.details: Inhibition of PDGF-receptor kinase activity (cell-free, PLC1 peptide, 33P Flashplate)
# Type: biochemical
# condition.summary: PDGF-R kinase activity; read-out: IC50
metric.name: IC50 (nM)

molecule: COc1cc2c(cc1OC)-c1n[nH]c(Nc3cccc(F)c3)c1C2 [Compound 14]
output.unit: nM
readout.value: 1.7
--
molecule: COc1cccc([C@H](C)Nc2[nH]nc3c2Cc2cc(OC)c(OC)cc2-3)c1 (single isomer, unassigned) [Compound 324]
output.unit: nM
readout.value: 1320
--
molecule: Nc1ccc2c(c1)Cc1c-2n[nH]c1Nc1ccccc1 [Compound 66]
output.unit: nM
readout.value: 92
--
molecule: COc1cc2c(cc1OC)-c1c(c(Nc3cccc(F)c3)nn1C(=O)NCCN1CCOCC1)C2 [Compound 521]
output.unit: nM
readout.value: 55.9
--
molecule: COc1cc2c(cc1OC)-c1nn(C(=O)CC(=O)N3CCCC3)c(Nc3cccc(F)c3)c1C2 [Compound 535]
output.unit: nM
readout.value: 32.2
--
molecule: COc1cc2c(cc1OCCCN1CCN(C)CC1)Cc1c-2n[nH]c1Nc1cccc(F)c1 [Compound 216]
output.unit: nM
readout.value: 5.8
--
molecule: COCC(=O)OCC(=O)n1nc(Nc2cccc(F)c2)c2c1-c1cc(OC)c(OC)cc1C2 [Compound 473]
output.unit: nM
readout.value: 8.96
--
molecule: OCCCOc1cc2c(cc1OCCCO)-c1n[nH]c(Nc3cccc(Cl)c3)c1C2 [Compound 373]
output.unit: nM
readout.value: 3.77
--
molecule: COc1ccc(Nc2[nH]nc3c2Cc2cc(OC)c(OC)cc2-3)cc1 [Compound 6]
output.unit: nM
readout.value: 131
--
molecule: COc1cccc2c1Cc1c-2n[nH]c1Nc1ccc(F)cc1 [Compound 144]
output.unit: nM
readout.value: 836
--
molecule: CN(C)CCCOc1cccc2c1Cc1c-2n[nH]c1Nc1cccnc1 [Compound 75]
output.unit: nM
readout.value: 575
--
molecule: COc1cc2c(cc1OC)-c1n[nH]c(Nc3ccccc3OC(F)(F)F)c1C2 [Compound 15]
output.unit: nM
readout.value: 1920
--
molecule: CC1c2ccccc2-c2n[nH]c(Nc3cccc(F)c3)c21 (centres unmarked) [Compound 108]
output.unit: nM
readout.value: 300
--
molecule: Cc1ccc2c(c1)-c1n[nH]c(NCc3cc(Cl)cc(Cl)c3)c1C2 [Compound 313]
output.unit: nM
readout.value: 3500
--
molecule: COc1cc2c(cc1OC)-c1n[nH]c(NCc3ccc(C)cc3)c1C2 [Compound 222]
output.unit: nM
readout.value: 806
--
molecule: COc1cc2c(cc1OC)-c1nn(C(=O)Nc3cccc(F)c3)c(Nc3cccc(F)c3)c1C2 [Compound 395]
output.unit: nM
readout.value: 686
--
molecule: COc1cc2c(cc1OC)-c1n[nH]c(NCc3ccccc3Cl)c1C2 [Compound 230]
output.unit: nM
readout.value: 1.9
--
molecule: COc1cc2c(cc1OC)C(C(C)C)c1c-2n[nH]c1Nc1cccc(Cl)c1 (centres unmarked) [Compound 540]
output.unit: nM
readout.value: 14700
--
molecule: Cc1cccc(CNc2[nH]nc3c2Cc2cc(F)ccc2-3)c1 [Compound 305]
output.unit: nM
readout.value: 458
--
molecule: COc1cc2c(cc1OC)C(C)c1c-2n[nH]c1Nc1ccc(F)cc1 (centres unmarked) [Compound 248]
output.unit: nM
readout.value: 410
--
molecule: c1cncc(Nc2[nH]nc3c2Cc2sccc2-3)c1 [Compound 402]
output.unit: nM
readout.value: 196
--
molecule: CCOc1cc2c(cc1OCC)-c1n[nH]c(Nc3cccc(OC)c3)c1C2 [Compound 245]
output.unit: nM
readout.value: 1
--
molecule: c1ccc(Nc2[nH]nc3c2CCOc2ccccc2-3)cc1 [Compound 318]
output.unit: nM
readout.value: 34400
--
molecule: c1ccc(Nc2[nH]nc3c2Cc2cc(N4CCCCC4)ccc2-3)cc1 [Compound 65]
output.unit: nM
readout.value: 1540
--
molecule: CCC1c2cc(OC)c(OC)cc2-c2[nH]nc(Nc3cccc(Br)c3)c21 (single isomer, unassigned) [Compound 483]
output.unit: nM
readout.value: 4970
--
molecule: COc1ccc(Nc2[nH]nc3c2Cc2cc(F)ccc2-3)cc1Cl [Compound 288]
output.unit: nM
readout.value: 219
--
molecule: COc1cc2c(cc1OC)-c1nn(COC(=O)C(C)(C)C)c(Nc3cccc(F)c3)c1C2 [Compound 408]
output.unit: nM
readout.value: 687
--
molecule: COC(=O)c1cccc(Nc2[nH]nc3c2Cc2cc4c(cc2-3)OCO4)c1 [Compound 127]
output.unit: nM
readout.value: 421
--
molecule: COc1cc2c(cc1OC)-c1n[nH]c(NCc3cccc(C)c3)c1C2 [Compound 272]
output.unit: nM
readout.value: 389
--
molecule: COc1cccc(Nc2[nH]nc3c2Cc2cc(OCCCN4CCN(C)CC4)c(OC)cc2-3)c1 [Compound 215]
output.unit: nM
readout.value: 5.7
--
molecule: COc1cc2c(cc1OC)C(C)c1c-2n[nH]c1Nc1cccc(Br)c1 (centres unmarked) [Compound 256]
output.unit: nM
readout.value: 8
--
molecule: CN(C)CCCOc1ccc2c(c1)Cc1c-2n[nH]c1Nc1cccc(C(F)(F)F)c1 [Compound 165]
output.unit: nM
readout.value: 101
--
molecule: CC(C)Oc1cc2c(cc1OC(C)C)C(C)c1c-2n[nH]c1Nc1cccc(F)c1 (centres unmarked) [Compound 351]
output.unit: nM
readout.value: 400
--
molecule: COCn1nc2c(c1Nc1cccc(F)c1)Cc1cc(OC)c(OC)cc1-2 [Compound 475]
output.unit: nM
readout.value: 5030
--
molecule: COc1cc2c(cc1OC)-c1n[nH]c(Nc3cccc(O)c3)c1C2 [Compound 38]
output.unit: nM
readout.value: 31
